test system: MS2 coat protein; assay: apparent KD of MS2 coat protein; designed switch direction (-1 OFF switch, 1 ON switch): 1; higher = weaker reporter binding; details: input ligand: none
// classify(record): look up apparent KD of MS2 coat protein in ranges A (below 60 nM), B (60 nM to below 200 nM), C (200 nM or more)

Consider the following illustrative entries.
[
  {
    "sequence_chain": "GCCGACUAAUGAGGAUAUGGCACCUUAUUGGUGCCAGAAGGCAUGUCAAUUGACAUGAGGAUCACCCAUGUAUUAUAGUUGGCG [salish99_SSNG1_r04_602] (Eterna round: R96, puzzle: Same State NG 1)",
    "target_system": "MS2 coat protein",
    "label_value": "C"
  },
  {
    "sequence_chain": "UUGAUAUGCGCAGGAUAUGGUGAGGAUCACCCACUAGAAGGGUGCACAUGAGAAUCGAACAUGAGGAUCACCCAUGUUCUGAGC (Eterna round: R96, puzzle: Same State NG 1)",
    "target_system": "MS2 coat protein",
    "label_value": "C"
  },
  {
    "sequence_chain": "AAAAUGGUAUGUUACAUGAGGAUCACCCAUGUACUCUAAUCUGAGGAUAUGGGAAUGUAGAAGAACCAGAAGGCAGACAUCCAA [AK SSNG3-V2-22.1] (Eterna round: R96, puzzle: Same State NG 3)",
    "target_system": "MS2 coat protein",
    "label_value": "B"
  },
  {
    "sequence_chain": "GCUAGGAAUAAAGCCAACAUGAGGAUCACCCAUGUAUGUUGGUAGGAUAUCGUAUGCAAAGCAUACGAGAAGGGCUAACCUAGC [Mat - Same State NG 3 - JL Mod - D69] (Eterna round: R96, puzzle: Same State NG 3)",
    "target_system": "MS2 coat protein",
    "label_value": "B"
  },
  {
    "sequence_chain": "AAACACAGCAUAACGCUGUGACAUGAGGAUCACCCAUGUACACAGGAUAUCAUGGCAUAACGCCAUGAGAAGGGUGAUCAAGAC [Arxeerte] (Eterna round: R96, puzzle: Same State NG 3)",
    "target_system": "MS2 coat protein",
    "label_value": "A"
  }
]

Band of CGGAAACGAUGAGGAUAUGCAGAGGAUCACCCUGUAGAAGGCAAGAGAUGAGGAUAUGCAGAGGAUCACCCUGUAGAAGGCAAC [pwkr ssNG DX.4] (Eterna round: R96, puzzle: Same State NG 1) ? B

Band of AUUAUUAAUGCAGGAUAUGAUUAACAUGAGGAUCACCCAUGUGGUGUUGUGAGUAAGGAGAGUGAUCAGAAGGGCAUUUUUUUA [JMF's solution 18] (Eterna round: R96, puzzle: Same State NG 2) ? C

Band of GCGAUAUGAUGUUACAUGAGGAUCACCCAUGUAGCGAUAGCUAAGGAUAUUUGAAAGGGAGGAGAAGAGAAGGUAGGAUCACGC [AK SSNG3-V2-22.2] (Eterna round: R96, puzzle: Same State NG 3) ? A

Band of GGUCCAUCAUGAGGAUAUGGCACCUUAUUGGUGCCAGAAGGCAUGUAAAUUAUAAUAAAACAUGAGGAUCACCCAUGUUGGACC [Eli NG1ss - 97] (Eterna round: R96, puzzle: Same State NG 1) ? B

Band of AAAAUGUGAUGUUACAUGAGGAUCACCCAUGUAGUGACAACUAAGGAUAUCUGAAAAAAAGGAGAGGAGAAGGUAGGAUCACAA [AK SSNG3-V2-16.1] (Eterna round: R96, puzzle: Same State NG 3) ? A

* * *

test system: K4 kissing-loop RNA reporter; test: apparent KD of K4 kissing-loop reporter; higher = weaker reporter binding; conditions: Eterna round: R107; input ligand: none
measurement_name: apparent KD of K4 kissing-loop reporter (nM)
Express your answer in nM, writing the number without its unit.

Here's what some known entries look like.
[
  {
    "sequence_chain": "AAUAUCUAGUAUAUUUUUAAUAAAACAGAUACCAGUGAUAAUAGACACCCUUGGCAGCUGGUCGAGUGAUGUUCGUUUAUUUUAA [JR_SSTheophyA_Sub005]",
    "value_unit": "nM",
    "meas_value": 105
  },
  {
    "sequence_chain": "AGCUGCCGAAUAGAUACCAGUGUCUUUAGUGAUGUUUCAGAGCUGGCACGAUCAGAAGGUCACCCUUGGCAGCUAGUGCCAGCGU [theeternabot_exclusion_KL_Theo_B_39]",
    "value_unit": "nM",
    "meas_value": 261
  },
  {
    "sequence_chain": "GGGAGUGAUGUUCCCGCGUUGACGGUCCUCCGAGGACCGGUACGGCCGCCACUCGAAACCCAGUGAUGUUGGGACUCACCGUACU [Exclusion Tryptophan A GF 11]",
    "value_unit": "nM",
    "meas_value": 511
  },
  {
    "sequence_chain": "GGUAGCAUGGCGGCCGCCACUAAAACUGGAUCGGAAACGAUCCAGUAAUUUCGAGUGAUGUUCGUUAGGACCGGGCCAUGCUACC",
    "value_unit": "nM",
    "meas_value": 283
  },
  {
    "sequence_chain": "GCGCGUCAUGUCAGCGGUGACACUGUCGAUACCAGUGCCGCAAGGCGCCCUUGGCAGCGACGUGCUGGAGUGAUGUUCCAGCGUU [#2 Exclusion - Theophylline A Attempt #29 (HarryS)]",
    "value_unit": "nM",
    "meas_value": 161
  },
  {
    "sequence_chain": "GGGAUGUAGUGAUGUUAUAUUAGAUGUAGACGAGGACCGGUACGGCCGCCACUCGUGAUGGCUGCUAGCACGUUUCGAUGUUUGC [ExTryptoA.Cr]",
    "value_unit": "nM",
    "meas_value": 428
  },
  {
    "sequence_chain": "CUAUCGGUGCCAGUGAUGUUGGUACCGCCACGAGGACCGGUACGGCCGCCACUCGCAUUAGAUGAUCACACAGUGUAUACUGCUA [Aleusorza]",
    "value_unit": "nM",
    "meas_value": 135
  },
  {
    "sequence_chain": "AUGCAUGAAAGUGAUGUUUUCAGUAAUGGAAAGGAUAUGCGCUGGUGCAGAAGGUUCUAAAGUGCAUCCAACAACUGGGUAGGCC [theeternabot_sameState_KL_FMN_A_36]",
    "value_unit": "nM",
    "meas_value": 322
  }
]

For AGGAGCGUGGGAUGUAAAUCGCACGCUCCUCGAGGACCGGUACGGCCGCCACUCGCUCGCGCCGAGUGAUGUUCGGCCGGCGAAC [#2 Same State - Tryptophan A Attempt #13 (HarryS)] , write its apparent KD of K4 kissing-loop reporter. 225

For GCGCGCGGCGGAGGAUAUAGCAGGUGAUCCAAGAAAGUGAGUGAUGUUUAUGGAGAUGAUGAUAUGUUAGAAGGCCGCCGCGCGC [abcdefghijklmnopqrstu] , write its apparent KD of K4 kissing-loop reporter. 626

For AGGGUAAGGCGUUAACAUGACACCUGGGAAGGAGCGCGGUACACCGCAGGUAGGUCGCCCAGUGAUGUUGGGUGUAAGUAUGAGU [KL-XArg-A23] , write its apparent KD of K4 kissing-loop reporter. 135

For CGUUUAUAGCAGGAUACCAGUACCCAUAAAGUACGUUAAUAGUAGAGUGAUGUUCUAAAGUACCCUUGGCAGCUUCCCGUGACUG [ExTheophylB.U] , write its apparent KD of K4 kissing-loop reporter. 79.5

For GGAUCCACCAGUGAUGUUGGAGAAAACUCCAAGGAUAUGACGAAAGUCAGAAGGUGGUAGACUGGACAAAGUCCGGUGGGAUCCA [FmnA10 G78] , write its apparent KD of K4 kissing-loop reporter. 392

For AGUGAUGUUGAGUUAUGUUAGUGAAGUGAUCGAGGACCGGUACGGCCGCCACUCGAGUGAUGAGUGAGUGAUGUUUGUUUAGUGA [bvbmullin] , write its apparent KD of K4 kissing-loop reporter. 857

* * *

system: K4 kissing-loop RNA reporter; assay: apparent KD of K4 kissing-loop reporter; higher = weaker reporter binding; settings: Eterna round: R107; input ligand: theophylline 20 uM;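 further: bound reporter read as fluorescence of individual clusters on recovered sequencing chips by microscopy, with normalized cluster intensities fitted with a binding model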
Reported values of apparent KD of K4 kissing-loop reporter for individual entries
Reply with the number and its unit after it.

[
  {
    "sequence_chain": "UUUUUUAGUUGAGUUAUACAUAGCGGACUAUAGGAUAUCUAGAAAUAGAGAAGGAUAAGAGUGAUGUUCUUAUUCAACUAUAGUG",
    "apparent KD of K4 kissing-loop reporter": "0.109 µM"
  },
  {
    "sequence_chain": "AUGCAGUGAUGUUGCUUUGUAUAAACAGAUACCAGUGAAUUUUAACACCCUUGGCAGCUGAUAGAUUCUUAAUUCUAUUAUAUAA [JR_SSTheophyA_Sub020]",
    "apparent KD of K4 kissing-loop reporter": "0.197 µM"
  },
  {
    "sequence_chain": "GGUUCUCUGUUAGGAUAUAGAUUAGAGUGAUGUUCUAACGGCCCGGGCCCGAAAGGGCCCGGGCCGCUAGAAGGAACGGAGUUGG [#2 Same State - FMN A Attempt #1 (HarryS)]",
    "apparent KD of K4 kissing-loop reporter": "0.538 µM"
  },
  {
    "sequence_chain": "AGCUGUAGCAGAAGGAGCGACAGUUAUUCUGAUAGUACUCUGAGUGAUGUUCAGAACGACUGUCAGGUAGGUCGCUGUUACAGCU [Arg B Ex t8b]",
    "apparent KD of K4 kissing-loop reporter": "0.143 µM"
  }
]

For CAUUCGAAAUGCAGUGAUGUUGCAACUGAUACCAGUAUCGAAAGAUACCCUUGGCAGCGGAAAACCGCUACGUAUUUUUUGAAUG [Ex Theophylline A K4 25] , write its apparent KD of K4 kissing-loop reporter. 0.356 µM

For AAUGUAUACUGAAGGAGCGAGUAGUGGAAACAUAAACUCAAUGCGAGUGAUGUUCGCAGUACUCAGGUAGGUCGCAGUAAUGGUA [Exclusion Arginine B Gf 8] , write its apparent KD of K4 kissing-loop reporter. 0.468 µM
